Target: UniProt Q2FZP6
Sequence (Q2FZP6 1-493): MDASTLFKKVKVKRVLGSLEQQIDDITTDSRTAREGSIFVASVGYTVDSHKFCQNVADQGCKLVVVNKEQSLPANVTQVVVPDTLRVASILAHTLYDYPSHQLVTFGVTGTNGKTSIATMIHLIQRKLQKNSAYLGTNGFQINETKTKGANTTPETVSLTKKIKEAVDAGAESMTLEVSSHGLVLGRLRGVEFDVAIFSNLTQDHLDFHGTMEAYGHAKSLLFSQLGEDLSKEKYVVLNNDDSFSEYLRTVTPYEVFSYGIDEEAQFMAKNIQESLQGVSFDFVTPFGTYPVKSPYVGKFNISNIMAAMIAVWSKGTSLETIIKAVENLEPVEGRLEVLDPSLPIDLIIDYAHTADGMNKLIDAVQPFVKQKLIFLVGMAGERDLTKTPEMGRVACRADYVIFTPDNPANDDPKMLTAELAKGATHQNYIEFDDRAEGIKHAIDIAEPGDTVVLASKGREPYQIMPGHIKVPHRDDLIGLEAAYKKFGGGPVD
pIC50: −log10 of the molar value.
Measured quantity: pIC50

[
  {
    "Compound smiles": "COc1ccc(/C=C2\\SC(=S)N(Cc3ccc4c(c3)OCO4)C2=O)c(OC)c1",
    "Target entity": "UniProt Q2FZP6",
    "Measured quantity": "pIC50",
    "Inequality operator": "<",
    "Measured value": 4.00
  },
  {
    "Compound smiles": "O=C1/C(=C/c2cccc(O)c2)SC(=S)N1Cc1ccc2c(c1)OCO2",
    "Target entity": "UniProt Q2FZP6",
    "Measured quantity": "pIC50",
    "Inequality operator": "=",
    "Measured value": 4.89
  },
  {
    "Compound smiles": "N#Cc1nc(/C=C2/SC(=S)N(Cc3ccc4c(c3)OCO4)C2=O)oc1N1CCOCC1",
    "Target entity": "UniProt Q2FZP6",
    "Measured quantity": "pIC50",
    "Inequality operator": "=",
    "Measured value": 4.29
  },
  {
    "Compound smiles": "O=C1/C(=C/c2c(NCCCO)nc3ccccn3c2=O)SC(=S)N1Cc1ccc2c(c1)OCO2",
    "Target entity": "UniProt Q2FZP6",
    "Measured quantity": "pIC50",
    "Inequality operator": "<",
    "Measured value": 4.00
  },
  {
    "Compound smiles": "CNc1nc2ccccn2c(=O)c1/C=C1\\SC(=S)N(Cc2ccc3c(c2)OCO3)C1=O",
    "Target entity": "UniProt Q2FZP6",
    "Measured quantity": "pIC50",
    "Inequality operator": "=",
    "Measured value": 5.40
  },
  {
    "Compound smiles": "COc1ccccc1/C=C1\\SC(=S)N(Cc2ccc3c(c2)OCO3)C1=O",
    "Target entity": "UniProt Q2FZP6",
    "Measured quantity": "pIC50",
    "Inequality operator": "<",
    "Measured value": 4.00
  }
]

====

Molecular target: S. aureus MurE (Staphylococcus aureus, UniProt Q2FZP6)
Sequence (Q2FZP6 1-493): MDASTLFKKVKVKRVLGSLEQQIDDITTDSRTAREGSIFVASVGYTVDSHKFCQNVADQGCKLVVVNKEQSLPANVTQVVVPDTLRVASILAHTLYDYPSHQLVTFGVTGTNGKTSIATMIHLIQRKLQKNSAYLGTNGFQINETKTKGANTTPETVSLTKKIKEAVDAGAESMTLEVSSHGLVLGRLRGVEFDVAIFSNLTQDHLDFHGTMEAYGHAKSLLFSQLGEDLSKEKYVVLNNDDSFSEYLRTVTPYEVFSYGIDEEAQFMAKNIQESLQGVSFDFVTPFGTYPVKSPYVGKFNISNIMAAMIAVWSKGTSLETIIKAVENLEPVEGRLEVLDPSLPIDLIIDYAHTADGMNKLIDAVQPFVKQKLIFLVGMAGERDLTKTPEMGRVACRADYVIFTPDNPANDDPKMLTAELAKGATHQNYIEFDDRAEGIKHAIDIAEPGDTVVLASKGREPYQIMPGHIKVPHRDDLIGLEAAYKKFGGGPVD
Assay: MurE enzyme assay (Method B)
Format: biochemical
Settings: residual activity at 100 μM inhibitor; assay with 5% DMSO and without inhibitor taken as 100%; means of duplicates; read-out: S. aureus MurE RA at 100 μM inhibitor conc.
Measured quantity: activity at 100 µM (%)

[
  {
    "Compound": "O=C1/C(=C/c2cccc(O)c2)SC(=S)N1Cc1ccc2c(c1)OCO2 [Example 10]",
    "Unit of measure": "%",
    "Measured value": 31
  },
  {
    "Compound": "O=C1/C(=C/c2c(NCCOCCO)nc3ccccn3c2=O)SC(=S)N1Cc1ccc2c(c1)OCO2 [Example 5]",
    "Unit of measure": "%",
    "Measured value": 10
  },
  {
    "Compound": "CNc1nc2ccccn2c(=O)c1/C=C1\\SC(=S)N(Cc2ccc3c(c2)OCO3)C1=O [Example 2]",
    "Unit of measure": "%",
    "Measured value": 7
  },
  {
    "Compound": "COc1ccccc1/C=C1\\SC(=S)N(Cc2ccc3c(c2)OCO3)C1=O [Example 13]",
    "Unit of measure": "%",
    "Measured value": 90
  },
  {
    "Compound": "N#Cc1nc(/C=C2/SC(=S)N(Cc3ccc4c(c3)OCO4)C2=O)oc1N1CCOCC1 [Example 9]",
    "Unit of measure": "%",
    "Measured value": 17
  },
  {
    "Compound": "CCN(CC)c1ccc(/C=C2\\SC(=S)N(Cc3ccc4c(c3)OCO4)C2=O)cc1 [Example 12]",
    "Unit of measure": "%",
    "Measured value": 59
  },
  {
    "Compound": "O=C1/C(=C/c2cccc([N+](=O)[O-])c2)SC(=S)N1Cc1ccc2c(c1)OCO2 [Example 7]",
    "Unit of measure": "%",
    "Measured value": 19
  },
  {
    "Compound": "O=C1/C(=C/c2c(NCCCO)nc3ccccn3c2=O)SC(=S)N1Cc1ccc2c(c1)OCO2 [Example 1]",
    "Unit of measure": "%",
    "Measured value": 82
  }
]

====

Listing of recorded activity at 100 µM by entry.
Biological target: E. coli MurD (Escherichia coli, UniProt P14900)
Sequence (P14900 whole entry): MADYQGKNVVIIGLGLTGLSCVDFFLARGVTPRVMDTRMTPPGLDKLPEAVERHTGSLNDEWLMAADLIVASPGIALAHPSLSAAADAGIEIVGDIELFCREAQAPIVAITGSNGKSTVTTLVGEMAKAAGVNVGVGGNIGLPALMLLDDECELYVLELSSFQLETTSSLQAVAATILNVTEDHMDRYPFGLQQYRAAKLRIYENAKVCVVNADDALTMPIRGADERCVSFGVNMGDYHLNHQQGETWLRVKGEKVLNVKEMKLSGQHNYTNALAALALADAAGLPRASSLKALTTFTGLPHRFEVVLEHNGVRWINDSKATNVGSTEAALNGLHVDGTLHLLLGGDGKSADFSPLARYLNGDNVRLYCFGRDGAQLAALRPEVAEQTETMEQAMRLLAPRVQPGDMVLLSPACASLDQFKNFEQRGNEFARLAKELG
Experiment: MurD enzyme assay (Method A)
Format: biochemical
Conditions: residual activity at 100 μM inhibitor; assay with 5% DMSO and without inhibitor taken as 100%; means of duplicates; read-out: E. coli MurD RA at 100 μM inhibitor conc.
Description: Method A: MurD Enzyme Assay The compounds are tested for their ability to inhibit the formation of UDP-MurNAc-L-Ala-D-[^14C]Glu in mixtures (50 μl) containing 0.1 M Tris-HCl, pH 8.6, 5 mM MgCl2, 5 mM ATP, 25 μM UDP-MurNAc-L-Ala, 25 μM D-[^14C]Glu, inhibitor (100 μM), DMSO (5%, v/v), and enzyme. […] After lyophilization, D-[^14C]Glu and of UDP-MurNAc-L-Ala-D-[^14C]Glu are separated by reverse-phase HPLC and quantitated by on-line scintillation counting. […]

[
  {
    "Molecule": "O=C1/C(=C/c2ccccn2)SC(=S)N1Cc1ccc2c(c1)OCO2 [Example 6]",
    "Target entity": "E. coli MurD (Escherichia coli, UniProt P14900)",
    "activity at 100 µM": "99%"
  },
  {
    "Molecule": "COc1ccc(/C=C2\\SC(=S)N(Cc3ccc4c(c3)OCO4)C2=O)c(OC)c1 [Example 14]",
    "Target entity": "E. coli MurD (Escherichia coli, UniProt P14900)",
    "activity at 100 µM": "72%"
  },
  {
    "Molecule": "N#Cc1nc(/C=C2/SC(=S)N(Cc3ccc4c(c3)OCO4)C2=O)oc1N1CCOCC1 [Example 9]",
    "Target entity": "E. coli MurD (Escherichia coli, UniProt P14900)",
    "activity at 100 µM": "98%"
  },
  {
    "Molecule": "O=C1/C(=C/c2c(NCCCO)nc3ccccn3c2=O)SC(=S)N1Cc1ccc2c(c1)OCO2 [Example 1]",
    "Target entity": "E. coli MurD (Escherichia coli, UniProt P14900)",
    "activity at 100 µM": "77%"
  },
  {
    "Molecule": "O=C1/C(=C/c2c(NCCOCCO)nc3ccccn3c2=O)SC(=S)N1Cc1ccc2c(c1)OCO2 [Example 5]",
    "Target entity": "E. coli MurD (Escherichia coli, UniProt P14900)",
    "activity at 100 µM": "71%"
  },
  {
    "Molecule": "COc1ccccc1/C=C1\\SC(=S)N(Cc2ccc3c(c2)OCO3)C1=O [Example 13]",
    "Target entity": "E. coli MurD (Escherichia coli, UniProt P14900)",
    "activity at 100 µM": "75%"
  },
  {
    "Molecule": "O=C1/C(=C/c2c(NCC3CCCO3)nc3ccccn3c2=O)SC(=S)N1Cc1ccc2c(c1)OCO2 (stereo not drawn) [Example 3]",
    "Target entity": "E. coli MurD (Escherichia coli, UniProt P14900)",
    "activity at 100 µM": "7%"
  },
  {
    "Molecule": "O=C1/C(=C/c2ccccc2O)SC(=S)N1Cc1ccc2c(c1)OCO2 [Example 8]",
    "Target entity": "E. coli MurD (Escherichia coli, UniProt P14900)",
    "activity at 100 µM": "100%"
  },
  {
    "Molecule": "CCN(CC)c1ccc(/C=C2\\SC(=S)N(Cc3ccc4c(c3)OCO4)C2=O)cc1 [Example 12]",
    "Target entity": "E. coli MurD (Escherichia coli, UniProt P14900)",
    "activity at 100 µM": "78%"
  }
]
